Assay: physchem
Conditions: 66% dmf
Measured endpoint: pKa

Structure string | pKa
CC[N+]([O-])(CC)CCOc1ccc(C(=O)c2c(-c3ccc(O)cc3)sc3cc(O)ccc23)cc1 | 6.15
COc1ccc(-c2sc3cc(OC)ccc3c2C(=O)c2ccc(OCC[N+]3([O-])CCCCC3)cc2)cc1 | 6.39

###

Attribute: pKa
Test: pKa determination
The answer should be written as a number, with no unit following it.

Molecule | pKa
[O-][N+]1(CCOc2ccc(Cc3c(-c4ccc(O)cc4)sc4cc(O)ccc34)cc2)CCCCC1 [Example 7] | 6.49

Proceeding to the next molecule to report its pKa.
Request: Fill in pKa for record [O-][N+]1(CCOc2ccc(C(O)c3c(-c4ccc(O)cc4)sc4cc(O)ccc34)cc2)CCCCC1 (centres unmarked) [Example 6]
Result: 6.41

Provenance of the data: patent EP0791591B1
